Read-out: ABC Transporter (ABCC2), ABCC2 (gene 1244)
assayRemarks: LTEA_HepaRG_ABCC2: Life Technologies and Expression Analysis (LTEA) Assay for ABC Transporter (ABCC2) using HepaRG (AID 2283464)
assaySetup: mRNA level, 48 h; actives raise or lower the signal
Activity calls are given as the source filed them. The calls were made as follows: active = hit-call score of the fitted dose curve at least 0.9, where 1 is the maximum; inactive = score below 0.9.
Outcomes: true (1) (active), false (0) (inactive)

>>> cat("O=C(O)c1cccc(C[C@@H]2COc3ccc(OCc4nc5cc(F)ccc5s4)cc3[C@@H]2O)c1")
"false (0)"
>>> cat("CC(=O)c1ccccc1")
"false (0)"
>>> cat("COc1cc(C(C)C)c2c(c1)S(=O)(=O)N(COc1cc(=O)n3cccc(OCCN4CCCCC4)c3n1)C2=O")
"true (1)"
>>> cat("O=S1(=O)CCCO1")
"false (0)"
>>> cat("Cc1ccc(S(=O)(=O)NC(=O)NN2CCCCCC2)cc1")
"false (0)"
>>> cat("CCCC(CCC)C(=O)O")
"false (0)"
>>> cat("CCCCCCCCCCCCCCO")
"false (0)"
>>> cat("NC(N)=O")
"false (0)"
>>> cat("Cc1ncc([C@@H](CCCCCCc2ccc3c(n2)NCCC3)CC(=O)O)cn1")
"false (0)"
>>> cat("O=C(O)c1cccc(C(=O)O)c1")
"false (0)"
>>> cat("CCCCOC(=O)c1ccccc1")
"false (0)"
>>> cat("CNC(C)=O")
"false (0)"
>>> cat("CCCCCCCCCC")
"false (0)"
>>> cat("NNC(=O)c1ccncc1")
"false (0)"
>>> cat("CCCc1ccccc1")
"false (0)"
>>> cat("CCCCCCCCCCCCCCCCOS(=O)(=O)O")
"false (0)"
>>> cat("OC[C@H]1O[C@@H]2O[C@H]3[C@H](O)[C@@H](O)[C@@H](O[C@H]4[C@H](O)[C@@H](O)[C@@H](O[C@H]5[C@H](O)[C@@H](O)[C@@H](O[C@H]6[C@H](O)[C@@H](O)[C@@H](O[C@H]7[C@H](O)[C@@H](O)[C@@H](O[C@H]1[C@H](O)[C@H]2O)O[C@@H]7CO)O[C@@H]6CO)O[C@@H]5CO)O[C@@H]4CO)O[C@@H]3CO")
"false (0)"
>>> cat("O=C1CN(N=Cc2ccc([N+](=O)[O-])o2)C(=O)N1")
"false (0)"
>>> cat("OCCOCCOCCO")
"false (0)"
>>> cat("CC(C)c1nnc2ccc(-c3ocnc3-c3cc(F)ccc3F)cn12")
"false (0)"
>>> cat("NC(=O)NN=Cc1ccc([N+](=O)[O-])o1")
"true (1)"
>>> cat("OC[C@H]1O[C@@](CO)(O[C@H]2O[C@H](CO)[C@@H](O)[C@H](O)[C@H]2O)[C@@H](O)[C@@H]1O")
"false (0)"
>>> cat("COS(C)(=O)=O")
"false (0)"
>>> cat("CCCCC(CC)C(=O)OCCOCCOCCOC(=O)C(CC)CCCC (centres undefined)")
"false (0)"
